Known MFI of a selection of binders
Target: T1, LILRA4
T1 construct: also called LILRA4 reporter cells
T1 sequence (chain, as listed by the source limits assumed): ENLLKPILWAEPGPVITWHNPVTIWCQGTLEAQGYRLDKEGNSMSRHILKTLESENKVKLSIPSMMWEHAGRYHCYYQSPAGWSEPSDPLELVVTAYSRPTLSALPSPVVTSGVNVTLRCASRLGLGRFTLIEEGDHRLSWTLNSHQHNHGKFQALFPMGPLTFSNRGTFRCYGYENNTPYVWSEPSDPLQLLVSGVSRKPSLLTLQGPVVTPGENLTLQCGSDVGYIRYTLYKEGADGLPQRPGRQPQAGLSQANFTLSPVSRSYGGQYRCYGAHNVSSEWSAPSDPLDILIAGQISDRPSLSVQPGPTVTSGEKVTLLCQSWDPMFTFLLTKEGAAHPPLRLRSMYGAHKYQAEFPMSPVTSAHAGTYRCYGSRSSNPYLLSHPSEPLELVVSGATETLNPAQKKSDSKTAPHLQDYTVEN
Test: flow cytometry, reporter cells

Here is how some binders turned out for MFI.
- Binder: "B2-7 (antibody, V domains shown, also called B2-7_HC; B2-7_LC) VH: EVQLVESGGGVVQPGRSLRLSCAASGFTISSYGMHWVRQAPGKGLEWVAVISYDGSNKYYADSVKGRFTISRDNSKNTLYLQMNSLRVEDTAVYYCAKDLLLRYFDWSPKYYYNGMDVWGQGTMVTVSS VL: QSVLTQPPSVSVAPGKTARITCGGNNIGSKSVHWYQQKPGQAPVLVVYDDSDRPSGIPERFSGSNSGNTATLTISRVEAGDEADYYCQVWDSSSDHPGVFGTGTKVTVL"
  Measured: 10
- Binder: "B2-15 (antibody, V domains shown, also called B-15; B2-15_HC) VH: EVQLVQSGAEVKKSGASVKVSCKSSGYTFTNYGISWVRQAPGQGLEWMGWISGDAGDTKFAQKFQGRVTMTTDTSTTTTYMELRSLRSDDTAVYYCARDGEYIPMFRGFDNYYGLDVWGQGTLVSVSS VL: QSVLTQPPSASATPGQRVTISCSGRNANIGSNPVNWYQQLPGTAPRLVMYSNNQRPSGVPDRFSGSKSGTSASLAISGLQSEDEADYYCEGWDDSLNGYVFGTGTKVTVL"
  Measured: 9
- Binder: "B2-17 (antibody, V domains shown, also called B2-17_HC; B2-17_LC) VH: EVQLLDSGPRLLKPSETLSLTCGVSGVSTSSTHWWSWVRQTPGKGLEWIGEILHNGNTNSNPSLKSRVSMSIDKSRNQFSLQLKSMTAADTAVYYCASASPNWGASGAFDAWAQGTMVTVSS VL: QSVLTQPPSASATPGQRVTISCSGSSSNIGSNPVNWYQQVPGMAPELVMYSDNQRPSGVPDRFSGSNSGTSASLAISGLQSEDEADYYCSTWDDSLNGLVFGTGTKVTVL"
  Measured: 10

In plain terms, B2-16 (antibody, V domains shown, also called B2-16_HC; B2-16_LC) VH: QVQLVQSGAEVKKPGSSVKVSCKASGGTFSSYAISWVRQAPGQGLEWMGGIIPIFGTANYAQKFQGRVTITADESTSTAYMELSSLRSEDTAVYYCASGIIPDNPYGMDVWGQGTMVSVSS VL: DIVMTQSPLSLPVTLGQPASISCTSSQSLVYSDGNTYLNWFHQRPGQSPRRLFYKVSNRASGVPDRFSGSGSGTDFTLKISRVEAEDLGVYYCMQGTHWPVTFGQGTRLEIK has a documented MFI of 10
